Target: SARS-COV-2 RBD (SARS-COV-2, UniProt P0DTC2 319-539)
Experiment: ELISA, RBD coated
Binary call on EC50 with cut-off 2 ng/mL: strictly below means Criterion met, and equality or higher means Criterion not met.

binder	assigned.class
C094 (antibody, V domains shown) VH: QVQLQESGPGLVKPSETLSLTCNVSGVSISTDYWSWIRQPPGKGLEWIGYIYYSGNTKDYNPSLKSRVTISVDTSKNQFSLMLSSVTAADTAVYYCARHYDILTSLSWFDPWGQGTLVTVSS VL: QSVLTQPPSVSAAPGQKVTISCSITNSNLGNIYVSWYQQLPGTAPKLLIYGNNKRPSGIPDRFSGSKSGTSATLGITGLQTGDEAHYYCGTWDSSLSANWVFGGGTKLTVL	Criterion met
C046 (antibody, V domains shown) VH: EVQLVESGGGLAQPGRSLRLSCAASGFTFDDYAMHWVRQAPGKGLEWVSGINWNSGSLGYADSVKGRFTISRGIAKNSLYLQMNSLRPEDTAFYYCAKAGVRGIAAAGPDLNFDYWGQGTLVTVSS VL: EIVLTQSPATLSLSPGERATLSCRASQSVSSYLAWYQQKPGQAPRLLIYDASNRATGIPARFIGSGSGTDFTLTISSLEPEDFAVYYCQQRITFGQGTRLEIK	Criterion not met
C053 (antibody, V domains shown) VH: EVQLVESGGGLIQPGGSLRLSCAASGFIVSNNYMSWVRQAPGKGLDWVSVIYSGGTTYYADSVKGRFTISRDNSKNTLYLQMNSLRAEDTAVYYCAREGDVEGYHDSWSGYSRDRYYFDYWGQGTLVTVSS VL: QSALTQPASVSGSPGQSITISCTGSSSDVGGYNFVSWYQQHPGRAPKLMIYDVSNRPSGVSNRFSGSKSGNTASLTISGLQVEDEADYYCSSYTNNNTRVFGTGTKVTVL	Criterion met

Q: Identify whether the binder C059 (antibody) chain 1: QVQLVQSGAEVKKPGASIKVSCKASGYTFTDYSMHWVRQAPGQGLEWMGWINPNSGGTKYAQKFQGWVTMTRDMSITTVYMELTRLRSDATAVFYCARGPLFHKLVYDSWTGYHDGFDIWGQGTMVTVSS chain 2: QSALTQPASVSGSPGQSITISCTGTSSDVGGYNYVSWYQHYPGKAPKLMIYEVTHRPSGVSNRFSGSKSGNTASLTISGLQAEDEADYYCSSSTNSSTWVFGGGTKMTVL records EC50 below 2 ng/mL.
A: Criterion met

Q: Next binder up: C052 (antibody, V domains shown) VH: EVQLVESGGGLIRPGGSLRLSCAASGFSVSNNYMSWVRQAPGKGLEWVSVIYSGGTTYYADSVKGRFNISRDNSKNTVYLQMNSLRAEDTAVYYCAREGDVEGYYDFWSGYSRDRYYFDYWGQGALVTVSS VL: QSALTQPASVSGSPGQSITISCTGTSSDVGGYNYVSWYQQHPGKAPKLMIYDVSNRPSGVSNRFSGSKSGNTASLTISGLQAEDEADYYCNSYTSNNTRVFGTGTKVTVL
A: Criterion met

Q: Repeat for the following binder: C537 (antibody, V domains shown) VH: QLQLQESGPGLVKPSETLSLTCTVSGGAISSRNYHWGWIRQPPGKGLEWIGSIYYSGSTYYSPSLKSRVTISVDTSKNQFSLRLSSVTAADTAVYYCARLETSGWYTEDVFDIWGQGTMVTVSS VL: DIQMTQSPSSLSASVGDRVTITCRASQSISSYLNWYQQKPGKAPKLLIYAASSLQSGVPSRFSGSGSGTDFTLTISSLLPEDFATYYCQRSYSAMYTFGQGTKLEIK
A: Criterion not met

// provenance: patent US20240218057A1
